Test: yeast display, Sf9 membrane polyspecificity reagent, FACS + sequencing; frameworks hold sequencing errors
recorded.endpoint: polyreactivity (PSR sort gate)

The examples below pair each entry with its known result.
Query: Would you mind telling me what polyreactivity (PSR sort gate) value was observed for QVQLVESGGGLVQAGGSLRLSCAASGSNFYRNAMGWYRQAPGKERELVAGIRWTGTRTYYADSVKGRFTISRDNAKNTVYLQMNSLKPEDTAVYYCNAVYSLSNAVDGDYWGQVTQVTVSS ?
Response: high polyreactivity

Query: Would you mind telling me what polyreactivity (PSR sort gate) value was observed for QVQLVESGGGLVQAGGSLRLSCAASGINFYDYAMGWYRQAPGKEREFVAAISWDGVSTYYADSVKGRFTISRDNAKNTVYLQMNSLKPEDTAVYYCAARAVTDDYYEFDYWGQGTQVTVSS ?
Response: low polyreactivity

Query: Would you mind telling me what polyreactivity (PSR sort gate) value was observed for QVQLVESGGGLVQAGGSLRISCAASGRIFRGNALGWYRQAPGTERELVAAITRSGGSTYYADSVKGRFTISRDNAKNTVYLQMNSLKPEDTAVYYCAAGYPYYSYLYDYWGQGTQVSVSS ?
Response: high polyreactivity

Query: Would you mind telling me what polyreactivity (PSR sort gate) value was observed for QVQLEESGGGLVQAGGSLRLSCAASGRIFQRNAMGWYRQAPGKEREFVAAITKSGGGTYADSVKGRFTISRDNAKNTVYLQMNSLKAEDTAVYYCNVVPVWRPYSLINWQKDFGYWGQGTQVTVSS ?
Response: high polyreactivity

Continuing:
Query: Would you mind telling me what polyreactivity (PSR sort gate) value was observed for QVRLVESGGGLVQAGGSLRLSCAASGFTFSPYAMGWYRQAPGKERELVAAITSSGGSTYYADSVKGRFTISRDNAKNTVYLQMNSLKPDDTAVSSCAKEIRYSSSVSESDYWGQGTQVSVSS ?
Response: high polyreactivity

Query: Would you mind telling me what polyreactivity (PSR sort gate) value was observed for QVQLQDSGGGLVQAGGSLRLSCAASGTISYRYRMGWYRQAPRKELELVAGIRFGSITYYADSVKGRFTISRDNAKNTVYLQMNSLKPEDIAVYYCAVYQKSYRFFPYWGQGTQVTVSS ?
Response: high polyreactivity

Query: Would you mind telling me what polyreactivity (PSR sort gate) value was observed for QVQLVESGGGLVQAGGSLRLSCAASGRIFTYYAMGWYRQAPGKERELVAAITGSGTSTYYADSVKGRFTISRDNAKNTVYLQMNSLKPEDTAVYYCAARNSYSRYYYWGQGTQVTVSS ?
Response: high polyreactivity

Query: Would you mind telling me what polyreactivity (PSR sort gate) value was observed for QVQLVEAGGGLVQAGGSLRLSCAASGSTFAGYAMGWYRQAPGKERELVATITYSGGSTYYADSVKGRFTISRDNAKNTVYLQMNSLKPEDTAVYYCAKKASYWWGYEYWGQGTQVTVSS ?
Response: low polyreactivity

Query: Would you mind telling me what polyreactivity (PSR sort gate) value was observed for QVQLVESGGGLVQAGGSLRLSCAASGRTFSFYAMVWYRQAPGKERELVAGIDWDDGSTSYADSVKGRFTISRDNAKNTVYLQMNSLKQEDTAVCYCAADIGYDVYNDYDYWGQGTQVTVSS ?
Response: low polyreactivity

Query: Would you mind telling me what polyreactivity (PSR sort gate) value was observed for QVQLVESGGGLVQAGGSLRLSCAASVLTFVDYAMGWYRQAPGKERELVAAITSSGGSITYYADSVKGRFTISRDNAKNTVYLQMNSLKPEDTAVYYCNADYGIYTDSFRGQDYESWGQGTQVTVSS ?
Response: low polyreactivity

Query: Would you mind telling me what polyreactivity (PSR sort gate) value was observed for QVQLVESGGGLVQAGGSLRLSFAASGSTFVYNAMGWYRPAPGKERELVAAITVIGGRTYYADSVKGRFTISRDNAKNTVYLQMNSLKPEDTAVYYCNADATESIGYYDEYEYWGQGTQVTVSS ?
Response: low polyreactivity
